# PROTOCOL: High-throughput drug toxicity screening in the BPDCN cell line Gen2.2 (AID 1224824);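 further: cells exposed to compounds for 48 h before reading; 100% = DMSO and 0% = bortezomib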
# EXPERIMENTAL CONTEXT: Gen2.2 BPDCN cells; at 45.8 µM (top of the series) unless noted
# Source text: Blastic plasmacytoid dendritic cell neoplasm (BPDCN) is a rare, aggressive and largely incurable hematologic malignancy originating from plasmacytoid dendritic cells (pDCs). Although an initial response to chemotherapy is common, BPDCN prognosis is extremely poor and most patients relapse with drug-resistant disease leading to a median overall survival of ~1 year after diagnosis. […]
cell viability, % of control (lower = more cytotoxic) strictly under 30% means YES; at 30% or over means NO.

- MOLECULE: "Clc1ccc(-c2nc3sccn3c2C=NOCc2ccc(Cl)c(Cl)c2)cc1"
  LABEL CLASS: "NO"

Dear reviewer, please state whether `COc1cc(N2CCC(N3CCN(C)CC3)CC2)ccc1Nc1ncnc(Nc2ccccc2S(=O)(=O)C(C)C)n1` has cell viability, % of control (lower = more cytotoxic) strictly beneath 30%.
YES

Dear reviewer, please state whether `O=C(O)c1c(Cl)c(Cl)c(Cl)c(Cl)c1-c1c2cc(I)c(=O)c(I)c-2oc2c(I)c(O)c(I)cc12` has cell viability, % of control (lower = more cytotoxic) strictly beneath 30%.
NO

Dear reviewer, please state whether `CO[C@H]1C(=O)[C@]2(C)[C@@H](OC)C[C@H]3OC[C@@]3(OC(C)=O)[C@H]2[C@H](OC(=O)c2ccccc2)[C@]2(O)C[C@H](OC(=O)[C@H](O)[C@@H](NC(=O)OC(C)(C)C)c3ccccc3)C(C)=C1C2(C)C` has cell viability, % of control (lower = more cytotoxic) strictly beneath 30%.
YES

* * *

# PROTOCOL: qHTS of pediatric cancer cell lines to identify multiple opportunities for drug repurposing: Primary screen for LAN-5 cells (AID 1347100); further: potency means the concentration at half of the fitted maximal effect
# EXPERIMENTAL CONTEXT: LAN-5 neuroblastoma viability, CellTiter-Glo luminescence, 48 h; series mostly up to 46 µM
Records with an inconclusive call do not appear. The source made the active and inactive calls. Calls follow the shape of the dose curve; as a rule, active = well fitted cell-killing curve with a large enough effect; inconclusive = small, poorly fitted or top-dose-only effect; inactive = no such curve, though single readings can be large or run the other way.
RESULT TYPE: Potency

The examples below pair each entry with its known result.
- MOLECULE: "COc1ncc(-c2ccc3nccc(-c4ccnnc4)c3c2)cc1NS(=O)(=O)c1ccc(F)cc1F"
  MEASUREMENT: "105 nM (active)"
- MOLECULE: "CC(=O)CCCCn1c(=O)c2c(ncn2C)n(C)c1=O"
  MEASUREMENT: "inactive"
- MOLECULE: "CC(C)OC(=O)C(C)(C)Oc1ccc(C(=O)c2ccc(Cl)cc2)cc1"
  MEASUREMENT: "inactive"
- MOLECULE: "O=C(CCc1ccc(O)cc1)c1c(O)cc(O)cc1O[C@@H]1O[C@H](CO)[C@H](O)[C@H](O)[C@H]1O"
  MEASUREMENT: "inactive"
- MOLECULE: "OC[C@H]1O[C@@H](n2cnc3c2NC=NC[C@@H]3O)C[C@H]1O"
  MEASUREMENT: "inactive"

Returns the measured Potency for the input molecule. Input: C[N+]1(C)[C@@H]2CC(OC(=O)[C@H](CO)c3ccccc3)C[C@H]1[C@H]1O[C@@H]12 (stereo partly specified)
inactive

* * *

# PROTOCOL: Quantitative High-Throughput drug screen in 47 multiple myeloma cell lines against the NCATS MIPE library collection: OPM2_DSMZ cell viability assay (AID 1919872); further: nearly all actives have a fitted effect of over 30% in size
# EXPERIMENTAL CONTEXT: OPM2 myeloma viability, CellTiter-Glo ATP luminescence, 48 h; series mostly up to 45.8 µM
Inconclusive results are not listed. Active and inactive are the calls of the source. Calls follow the shape of the dose curve; as a rule, active = well fitted cell-killing curve with a large enough effect; inconclusive = small, poorly fitted or top-dose-only effect, or effect the other way; inactive = no such curve, though single readings can be large or run the other way.
Your reply should match one of these outcome classes. active, inactive

- COMPOUND: "COc1cc2ncnc(-n3nc(-c4ccccn4)nc3N)c2cc1OC"
  LABEL CLASS: "inactive"
- COMPOUND: "O=C(Nc1ccccc1Br)N[C@@H]1CCN(c2ccc(C(F)(F)F)cn2)C1"
  LABEL CLASS: "inactive"
- COMPOUND: "COc1cccc(-c2cc(=O)c3ccccc3o2)c1N"
  LABEL CLASS: "inactive"
- COMPOUND: "CC(C)OC(=O)CCCC=CC[C@@H]1[C@H](C=C[C@@H](O)COc2cccc(C(F)(F)F)c2)[C@H](O)C[C@@H]1O"
  LABEL CLASS: "active"
- COMPOUND: "CC1CCC(C(=O)N(c2cc(C#CC(C)(C)C)sc2C(=O)O)C2CCC(O)CC2)CC1 (stereo not given)"
  LABEL CLASS: "inactive"

Could you now look at the following compound, please?
# lookup: test call for `O=C(Nc1ccccc1-c1cn2c(CN3CCNCC3)csc2n1)c1cnc2ccccc2n1`
active

* * *

# PROTOCOL: Quantitative High-Throughput drug screen in 47 multiple myeloma cell lines against the NCATS MIPE library collection: PE2_PLB cell viability assay (AID 1919869); further: nearly all actives have a fitted effect of over 35% in size
# EXPERIMENTAL CONTEXT: PE2_PLB myeloma cells viability, ATP luminescence, 48 h; series mostly up to 45.8 µM
# From the text: PI: Beverly A. Mock Ph.D. Laboratory of Cancer Biology and Genetics, Center for Cancer Research, National Cancer Institute, National Institute of Health, Bethesda, Maryland […] 5; Detector; 425V; Luminescence; Viewlux PerkinElmer. […] 1. […] Briefly, the corresponding myeloma cell lines were screened in 1,536-well plates with 500 cells, 5-uL per well for inhibition of cell viability (assessed by measuring ATP levels with CellTiterGlo). […]
Records with an inconclusive call do not appear. Calls of active or inactive are those of the source. Calls follow the shape of the dose curve; as a rule, active = well fitted cell-killing curve with a large enough effect; inconclusive = small, poorly fitted or top-dose-only effect, or effect the other way; inactive = no such curve, though single readings can be large or run the other way.
Your reply should match one of these outcome classes. TRUE for active, FALSE for inactive

Solved cases (3 shown):
- COMPOUND: "O=C(O)c1c(Cl)c(Cl)c(Cl)c(Cl)c1-c1c2cc(I)c(=O)c(I)c-2oc2c(I)c(O)c(I)cc12"
  LABEL CLASS: "TRUE"
- COMPOUND: "CCOC1OC(=O)C[C@H]1NC(=O)[C@@H]1CCCN1C(=O)[C@@H](NC(=O)c1ccc(N)c(Cl)c1)C(C)(C)C (some centres undefined)"
  LABEL CLASS: "FALSE"
- COMPOUND: "COCCOC(=O)C1=C(C)NC2=C(C(=O)CC(c3ccccc3OC)C2)C1c1cccc(O)c1 (centres undefined)"
  LABEL CLASS: "TRUE"

# lookup: test call for `CC(C)C[C@H](CC(=O)O)C(=O)N[C@@H](Cc1c[nH]c2ccccc12)C(=O)N[C@@H](C)c1ccccc1`
FALSE

# lookup: test call for `CCn1cc(C(=O)O)c(=O)c2ccc(C)nc21`
FALSE

# lookup: test call for `NC(=O)c1cccc(-c2cc(Nc3ccc(OC(F)(F)F)cc3)ncn2)c1`
TRUE

# lookup: test call for `CC=CC(=O)N(CC)c1ccccc1C`
FALSE

# lookup: test call for `CC(C)(C)NC(=O)Nc1cccc(Nc2ncc(F)c(NC(C)(C)CO)n2)c1`
TRUE

# lookup: test call for `Cc1ccc(Nc2cc(-c3cccc(N4C(=O)c5ccccc5C4=O)c3)ncn2)cc1NS(C)(=O)=O`
TRUE

# lookup: test call for `COc1cc2c(cc1OC)CN(CCc1ccc(NC(=O)c3cc(OC)c(OC)cc3NC(=O)c3cnc4ccccc4c3)cc1)CC2`
TRUE

# lookup: test call for `Oc1ccc(C2=Cc3ccc(O)cc3OC2)cc1`
TRUE

# lookup: test call for `NC[C@@H]1O[C@@H](O[C@H]2[C@@H](O)[C@H](O[C@@H]3[C@@H](O)[C@@H](N)C[C@H](N)[C@H]3O[C@H]3O[C@H](CN)[C@@H](O)[C@@H](O)[C@H]3N)O[C@H]2CO)[C@H](N)[C@@H](O)[C@@H]1O`
FALSE

# lookup: test call for `O=C1C[C@@H](c2ccc(O)cc2)Oc2cc(O)cc(O)c21`
FALSE

# lookup: test call for O=C(O)CCC1CCC(c2cc(F)ccc2F)(S(=O)(=O)c2ccc(Cl)cc2)CC1 (centres undefined)
FALSE

# lookup: test call for `O=C(NCc1ccccc1)c1csc(Nc2ccncn2)n1`
TRUE

# lookup: test call for `Clc1cc(Cl)cc(CNc2ncncc2-c2ccc3c(c2)OCO3)c1`
TRUE

# lookup: test call for `Clc1ccc(-c2nc3sccn3c2C=NOCc2ccc(Cl)c(Cl)c2)cc1`
FALSE

# lookup: test call for `O=C(Nc1ccccc1Br)N[C@@H]1CCN(c2ccc(C(F)(F)F)cn2)C1`
TRUE

# lookup: test call for `C[C@H](NC(=O)C(=O)Nc1ccccc1C(C)(C)C)C(=O)N[C@@H](CC(=O)O)C(=O)COc1c(F)c(F)cc(F)c1F`
FALSE

* * *

# System: HaCat
# PROTOCOL: Cytotoxic Profiling of Annotated Libraries Using Quantitative High-Throughput Screening (AID 1296008); further: on the % scale 0 is the no-effect control and ±100 the full control effect; nearly all actives have a fitted effect of over 60% in size
# EXPERIMENTAL CONTEXT: Five cell lines viability, CellTiter-Glo ATP luminescence, 48-72 h; stronger effect = lower value
Records with an inconclusive call do not appear.
RESULT TYPE: max response (%)
The reply should be a number in %, with the unit left off.

- COMPOUND: "CCN(CC)CCNC(=O)c1ccc(N)cc1"
  STUDY TARGET: "HaCat"
  max response (%): 0.0096
- COMPOUND: "Cc1cc(OCCCc2c(C(=O)O)n(Cc3cccnc3)c3c(-c4c(COc5ccc(N6CCN([S+](C)(=O)[O-])CC6)cc5)nn(C)c4C)cccc23)cc(C)c1Cl"
  STUDY TARGET: "HaCat"
  max response (%): -19.1
- COMPOUND: "O=c1cc(-c2ccc(O)cc2)oc2cc(O)cc(O)c12"
  STUDY TARGET: "HaCat"
  max response (%): -20

Returns the measured max response for the input compound. Input: `CC(=O)CCCCn1c(=O)c2c(ncn2C)n(C)c1=O`
-9.06

Returns the measured max response for the input compound. Input: `CC(C)(C)C(=O)Oc1ccc2c(c1)nc(NC(=O)c1cccc([N+](=O)[O-])c1)n2CCCO`
-9.39

Returns the measured max response for the input compound. Input: `CCCCC1C(=O)N(c2ccccc2)N(c2ccccc2)C1=O`
-4.56

Returns the measured max response for the input compound. Input: `O=C(Nc1cc(Cl)cc2c1[nH]c1cnccc12)c1cccnc1`
-0.0712

Returns the measured max response for the input compound. Input: `O=C1c2c(O)cc(O)cc2O[C@H](c2cc(O)c(O)c(O)c2)[C@H]1O`
-8.4

Returns the measured max response for the input compound. Input: C[C@]12CC[C@@H]3c4ccc(O)cc4C[C@@H](CCCCCCCCCS(=O)CCCC(F)(F)C(F)(F)F)[C@H]3[C@H]1CC[C@H]2O (stereo not given in full)
0.837

Returns the measured max response for the input compound. Input: CS(=O)(=O)N(Cc1ccco1)CC(O)Cn1c2ccccc2c2ccccc21 (stereo not given)
-8.74
